- methodSummary: melting temperature; fluorescence melt of hairpins on a sequencing array, two-state fit, raised by 9.35 °C to match UV melts
- conditionDetails: sodium 0.088 M
Classify as follows. Reported Tm greater than or equal to 50 °C: T. Reported Tm below: F.

Answer whether Tm of GCGTAACTACGC ((((....)))) is greater than or equal to 50 °C.
T

Answer whether Tm of GGGAACGCGAAAGCGCCC (((..(((....)))))) is greater than or equal to 50 °C.
F

Answer whether Tm of GCTCAGCGAAAGCGGCGC ((.(.((....)).).)) is greater than or equal to 50 °C.
T

Answer whether Tm of GGTCCCTCGAAAGAGACC (((..(((....)))))) is greater than or equal to 50 °C.
F

Answer whether Tm of GCTAAACCGAAAGGTAGC (((..(((....)))))) is greater than or equal to 50 °C.
F

Answer whether Tm of GTGCGCGAAAGCGAACAC ((((((....)))..))) is greater than or equal to 50 °C.
T

Answer whether Tm of GTGTTCGGAAACGGACAC ((((.((....)).)))) is greater than or equal to 50 °C.
T

Answer whether Tm of GCAGTTGGAAACAACTGC (((((((....))))))) is greater than or equal to 50 °C.
T

Answer whether Tm of GTTCCCGGAAACGGAAAC (((.(((....))).))) is greater than or equal to 50 °C.
F

Answer whether Tm of GGTGAACGAAAGTTTACC (((.(((....))).))) is greater than or equal to 50 °C.
T

Answer whether Tm of GAGAATGGAAACATTCTC (((((((....))))))) is greater than or equal to 50 °C.
T

Answer whether Tm of GTGTGCGAAAGCAACAC ((((((....))).))) is greater than or equal to 50 °C.
T

Answer whether Tm of GGTCACGGAAACGTGGTC (..((((....))))..) is greater than or equal to 50 °C.
F

Answer whether Tm of CGACCCGGAAACGGTCG (((.(((....)))))) is greater than or equal to 50 °C.
T

Answer whether Tm of GCCGCAGGAAACCGCAGC ((.((.(....).)).)) is greater than or equal to 50 °C.
F

Answer whether Tm of GGCTAGCCGAAAGGCGCC (((..(((....)))))) is greater than or equal to 50 °C.
T

Answer whether Tm of GCGAAGCGAAAGCAGCGC (((..((....))..))) is greater than or equal to 50 °C.
T

Answer whether Tm of GGGCCTACGAAAGTACCC (((..(((....)))))) is greater than or equal to 50 °C.
F

Answer whether Tm of GAAACCGAAAGGTGATTC ((((((....)))..))) is greater than or equal to 50 °C.
F

Answer whether Tm of GTCGGTGGAAACATCGAC ((((.((....)).)))) is greater than or equal to 50 °C.
T

Answer whether Tm of GTGGTACCGAAAGGTCAC (((..(((....)))))) is greater than or equal to 50 °C.
F

Answer whether Tm of GATCCGAGACGGATC ((((((...)))))) is greater than or equal to 50 °C.
T

Answer whether Tm of GATACCGCGAAAGCGATC (((..(((....)))))) is greater than or equal to 50 °C.
F

Answer whether Tm of GATCCTGCTAGGATC ((((((...)))))) is greater than or equal to 50 °C.
T

Answer whether Tm of GGACGCCGAAAGGCTCC (((.(((....)))))) is greater than or equal to 50 °C.
T

Answer whether Tm of GACAATGCGAAAGCAGTC (((..(((....)))))) is greater than or equal to 50 °C.
F

Answer whether Tm of AGAAACAGAAATGGTTCT ((((.((....)).)))) is greater than or equal to 50 °C.
F

Answer whether Tm of GGTATAGAAATATACC ((((((....)))))) is greater than or equal to 50 °C.
F

Answer whether Tm of GGTTGTGAAAACAACC ((((((....)))))) is greater than or equal to 50 °C.
T

Answer whether Tm of GGAAATGGAAACGTTTCC (((((.(....).))))) is greater than or equal to 50 °C.
F

Answer whether Tm of GATCGTTCCTACGATC ((((((....)))))) is greater than or equal to 50 °C.
T

Answer whether Tm of GTATTTCGAAAGAATAC (((.(((....)))))) is greater than or equal to 50 °C.
F

Answer whether Tm of GCGGATACCCGC ((((....)))) is greater than or equal to 50 °C.
T

Answer whether Tm of GTAAGGCGAAAGCCCTAC (((.(((....))).))) is greater than or equal to 50 °C.
F

Answer whether Tm of GATCATGTAATGATC ((((((...)))))) is greater than or equal to 50 °C.
T

* * *

- methodSummary: melting temperature; fluorescence melt of hairpins on a sequencing array, two-state fit, raised by 9.35 °C to match UV melts
- conditionDetails: sodium 0.088 M
readoutKind: Tm (°C)
Kindly provide the numeric value in °C only, without the unit symbol.

Which Tm value is on record for GCACCGCGAAAGCGAGGC ((..(((....)))..)) ?
53.2

Which Tm value is on record for GCCCACTCGAAAGAGGGC (((..(((....)))))) ?
50.6

Which Tm value is on record for GTCTCGGGAAACTGAGGC (.(((.(....).))).) ?
38.8

Which Tm value is on record for GCGGTCACCGC ((((...)))) ?
63

Which Tm value is on record for ATATGGAAACATAT (((((....))))) ?
27.6

Which Tm value is on record for GTCTCCCCGAAAGGGGAC (((..(((....)))))) ?
37.8

Which Tm value is on record for GCCAGCGGAAACGCTAGC ((.((((....)))).)) ?
49

Which Tm value is on record for GATCTACCGTTAGATC ((((((....)))))) ?
37.8

Which Tm value is on record for GCGGCCGAAAGGCTCGC ((((((....))).))) ?
68.8

Which Tm value is on record for GTTCCCGAAAGGGGGAAC ((((((....)))..))) ?
48.4

Which Tm value is on record for GAACCGGGAAACTGGTTC (((((.(....).))))) ?
51.4

Which Tm value is on record for GTACTCGAAAGAGAGTAC ((((((....)))..))) ?
46.8

Which Tm value is on record for GATCCCCGACGGGATC ((((((....)))))) ?
56.8

Which Tm value is on record for GATTATGGAAACATGATC (((.(((....))).))) ?
35.5

Which Tm value is on record for GCCTTAACGAAAGTTGGC (((..(((....)))))) ?
43.7

* * *

- methodSummary: folding enthalpy; higher = less favourable; fluorescence melt of hairpins on a sequencing array, two-state fit
- conditionDetails: sodium 0.088 M
readoutKind: folding enthalpy (kcal/mol)
Kindly provide the numeric value in kcal/mol only, without the unit symbol.

Which folding enthalpy value is on record for GCAGTTGGAAACAGCTGC ((((.((....)).)))) ?
-31.9

Which folding enthalpy value is on record for GAATGAGGAAACTCATTC (((((((....))))))) ?
-37.3

Which folding enthalpy value is on record for GATCCCCGAGGGATC ((((((...)))))) ?
-31.8

Which folding enthalpy value is on record for GATCGAATGTTCGATC ((((((....)))))) ?
-42.5

Which folding enthalpy value is on record for GGATGCGGAAACGCACCC ((.((((....)))).)) ?
-27.4

Which folding enthalpy value is on record for CGGTGCGGAAACGCTCCG (((.(((....))).))) ?
-34.8

Which folding enthalpy value is on record for GATCCATTATGGATC ((((((...)))))) ?
-35.9

* * *

- methodSummary: folding enthalpy; higher = less favourable; fluorescence melt of hairpins on a sequencing array, two-state fit
- conditionDetails: sodium 0.088 M
Classify as follows. Reported folding enthalpy greater than or equal to -20 kcal/mol: 1 (yes). Reported folding enthalpy below: 0 (no).

Answer whether folding enthalpy of GCCTGGCGAAAGCCGCGC ((..(((....)))..)) is greater than or equal to -20 kcal/mol.
1 (yes)

Answer whether folding enthalpy of GTTACTCGAAAGAGAAC (((.(((....)))))) is greater than or equal to -20 kcal/mol.
1 (yes)

Answer whether folding enthalpy of GTAAGGGGAAACCTTTAC ((((.((....)).)))) is greater than or equal to -20 kcal/mol.
0 (no)

Answer whether folding enthalpy of GTGCGCCGAAAGGCCCAC (((.(((....))).))) is greater than or equal to -20 kcal/mol.
0 (no)

Answer whether folding enthalpy of GCATCCGAAAGGATTGC ((((((....))).))) is greater than or equal to -20 kcal/mol.
1 (yes)

Answer whether folding enthalpy of CGCGCGGAAACGCCGGCG ((((((....)))..))) is greater than or equal to -20 kcal/mol.
0 (no)

Taken from the array DNA melting data of Ke et al. (doi:10.1101/2024.01.08.574731).
